assay-summary: Tested for Lipophilicity of the compound
Assay type: physicochemical
applied-conditions: octanol/water
experimental-readout: Lipophilicity

- input-smiles: "CCCCc1nc2ccc(I)cc2c(=O)n1Cc1ccc(-c2ccccc2-c2nnn[nH]2)cc1"
  experimental-readout: "Lipophilicity"
  measured-value: 1.12
- input-smiles: "CCCCc1nc2ccc(C)cc2c(=O)n1Cc1ccc(-c2ccccc2-c2nnn[nH]2)cc1"
  experimental-readout: "Lipophilicity"
  measured-value: 0.56
- input-smiles: "CCCCc1nc2ccc(Cl)cc2c(=O)n1Cc1ccc(-c2ccccc2-c2nn[nH]n2)cc1"
  experimental-readout: "Lipophilicity"
  measured-value: 0.71
- input-smiles: "CCCCc1nc2ccccc2c(=O)n1Cc1ccc(-c2ccccc2-c2nn[nH]n2)cc1"
  experimental-readout: "Lipophilicity"
  measured-value: 0
- input-smiles: "CCCCc1nc2ccc(NC(C)=O)cc2c(=O)n1Cc1ccc(-c2ccccc2-c2nnn[nH]2)cc1"
  experimental-readout: "Lipophilicity"
  measured-value: -0.97
- input-smiles: "CCCCc1nc2ccc(C(F)(F)F)cc2c(=O)n1Cc1ccc(-c2ccccc2-c2nn[nH]n2)cc1"
  experimental-readout: "Lipophilicity"
  measured-value: 0.88
- input-smiles: "CCCCc1nc2ccc(F)cc2c(=O)n1Cc1ccc(-c2ccccc2-c2nn[nH]n2)cc1"
  experimental-readout: "Lipophilicity"
  measured-value: 0.14
- input-smiles: "CCCCc1nc2ccc([N+](=O)[O-])cc2c(=O)n1Cc1ccc(-c2ccccc2-c2nn[nH]n2)cc1"
  experimental-readout: "Lipophilicity"
  measured-value: -0.28
- input-smiles: "CCCCc1nc2ccc(N)cc2c(=O)n1Cc1ccc(-c2ccccc2-c2nnn[nH]2)cc1"
  experimental-readout: "Lipophilicity"
  measured-value: -1.23
- input-smiles: "CCCCc1nc2ccc(OC)cc2c(=O)n1Cc1ccc(-c2ccccc2-c2nnn[nH]2)cc1"
  experimental-readout: "Lipophilicity"
  measured-value: -0.02

----------
Reported IC50 values for a set of molecules
tested-system: Type-1 angiotensin II receptor (Oryctolagus cuniculus)
Sequence (P34976 whole entry): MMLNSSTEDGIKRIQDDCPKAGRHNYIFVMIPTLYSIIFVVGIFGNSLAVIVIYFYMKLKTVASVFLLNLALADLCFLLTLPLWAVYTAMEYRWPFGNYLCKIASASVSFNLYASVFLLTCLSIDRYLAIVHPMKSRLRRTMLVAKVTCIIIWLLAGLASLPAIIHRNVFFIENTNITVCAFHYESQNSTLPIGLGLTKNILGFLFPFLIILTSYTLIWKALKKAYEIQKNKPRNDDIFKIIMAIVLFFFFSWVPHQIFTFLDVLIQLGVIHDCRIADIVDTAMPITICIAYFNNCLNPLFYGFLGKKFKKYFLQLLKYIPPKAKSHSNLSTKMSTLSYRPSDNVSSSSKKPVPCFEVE
assay-summary: Binding affinity against Angiotensin II type 1 Receptor in rabbit aortic tissue
Format: tissue-based, Aorta

- input-smiles: "CCCCc1nc2ccc(N)cc2c(=O)n1Cc1ccc(-c2ccccc2-c2nnn[nH]2)cc1"
  tested-system: "Type-1 angiotensin II receptor (Oryctolagus cuniculus)"
  prefix-operator: "="
  IC50, nM: 1.3
- input-smiles: "CCCCC(=O)Nc1ccc2nc(CCCC)n(Cc3ccc(-c4ccccc4-c4nnn[nH]4)cc3)c(=O)c2c1"
  tested-system: "Type-1 angiotensin II receptor (Oryctolagus cuniculus)"
  prefix-operator: "="
  IC50, nM: 2
- input-smiles: "CCCCc1nc2cc(OC)c(OC)cc2c(=O)n1Cc1ccc(-c2ccccc2-c2nnn[nH]2)cc1"
  tested-system: "Type-1 angiotensin II receptor (Oryctolagus cuniculus)"
  prefix-operator: "="
  IC50, nM: 13
- input-smiles: "CCCCc1nc2ccc(NC(C)=O)cc2c(=O)n1Cc1ccc(-c2ccccc2-c2nnn[nH]2)cc1"
  tested-system: "Type-1 angiotensin II receptor (Oryctolagus cuniculus)"
  prefix-operator: "="
  IC50, nM: 9
- input-smiles: "CCCCc1nc2cc(Cl)ccc2c(=O)n1Cc1ccc(-c2ccccc2-c2nn[nH]n2)cc1"
  tested-system: "Type-1 angiotensin II receptor (Oryctolagus cuniculus)"
  prefix-operator: "="
  IC50, nM: 15
- input-smiles: "CCCCc1nc2c(C)cccc2c(=O)n1Cc1ccc(-c2ccccc2C(=O)O)cc1"
  tested-system: "Type-1 angiotensin II receptor (Oryctolagus cuniculus)"
  prefix-operator: "="
  IC50, nM: 1400
- input-smiles: "CCCCc1nc2ccc(C)cc2c(=O)n1Cc1ccc(-c2ccccc2C(=O)O)cc1"
  tested-system: "Type-1 angiotensin II receptor (Oryctolagus cuniculus)"
  prefix-operator: "="
  IC50, nM: 92
- input-smiles: "CCCCc1nc2cccc(C)c2c(=O)n1Cc1ccc(-c2ccccc2C(=O)O)cc1"
  tested-system: "Type-1 angiotensin II receptor (Oryctolagus cuniculus)"
  prefix-operator: "="
  IC50, nM: 370
- input-smiles: "CCCCc1nc2ccc(F)cc2c(=O)n1Cc1ccc(-c2ccccc2-c2nn[nH]n2)cc1"
  tested-system: "Type-1 angiotensin II receptor (Oryctolagus cuniculus)"
  prefix-operator: "="
  IC50, nM: 26
- input-smiles: "CCCCc1nc2ccccc2c(=O)n1Cc1ccc(-c2ccccc2-c2nn[nH]n2)cc1"
  tested-system: "Type-1 angiotensin II receptor (Oryctolagus cuniculus)"
  prefix-operator: "="
  IC50, nM: 10
- input-smiles: "CCCCc1nc2ccc(OC)cc2c(=O)n1Cc1ccc(-c2ccccc2-c2nnn[nH]2)cc1"
  tested-system: "Type-1 angiotensin II receptor (Oryctolagus cuniculus)"
  prefix-operator: "="
  IC50, nM: 5
- input-smiles: "CCCCc1nc2cc3ccccc3cc2c(=O)n1Cc1ccc(-c2ccccc2C(=O)O)cc1"
  tested-system: "Type-1 angiotensin II receptor (Oryctolagus cuniculus)"
  prefix-operator: "="
  IC50, nM: 380
- input-smiles: "CCCCc1nc2ccc([N+](=O)[O-])cc2c(=O)n1Cc1ccc(-c2ccccc2-c2nn[nH]n2)cc1"
  tested-system: "Type-1 angiotensin II receptor (Oryctolagus cuniculus)"
  prefix-operator: "="
  IC50, nM: 28
- input-smiles: "CCCCc1nc2ccc(C)cc2c(=O)n1Cc1ccc(-c2ccccc2-c2nnn[nH]2)cc1"
  tested-system: "Type-1 angiotensin II receptor (Oryctolagus cuniculus)"
  prefix-operator: "="
  IC50, nM: 4
- input-smiles: "CCCCc1nc2cc(C)ccc2c(=O)n1Cc1ccc(-c2ccccc2C(=O)O)cc1"
  tested-system: "Type-1 angiotensin II receptor (Oryctolagus cuniculus)"
  prefix-operator: "="
  IC50, nM: 370
- input-smiles: "CCc1nc2ccc(C)cc2c(=O)n1Cc1ccc(-c2ccccc2-c2nn[nH]n2)cc1"
  tested-system: "Type-1 angiotensin II receptor (Oryctolagus cuniculus)"
  prefix-operator: ">"
  IC50, nM: 100
- input-smiles: "CCCc1nc2ccc(C)cc2c(=O)n1Cc1ccc(-c2ccccc2-c2nn[nH]n2)cc1"
  tested-system: "Type-1 angiotensin II receptor (Oryctolagus cuniculus)"
  prefix-operator: "="
  IC50, nM: 10
- input-smiles: "CCCCc1nc2ccccc2c(=O)n1Cc1ccc(-c2ccccc2C(=O)O)cc1"
  tested-system: "Type-1 angiotensin II receptor (Oryctolagus cuniculus)"
  prefix-operator: "="
  IC50, nM: 200
- input-smiles: "CCCCCc1nc2ccc(C)cc2c(=O)n1Cc1ccc(-c2ccccc2-c2nnn[nH]2)cc1"
  tested-system: "Type-1 angiotensin II receptor (Oryctolagus cuniculus)"
  prefix-operator: "="
  IC50, nM: 6.4
- input-smiles: "CCCCc1nc2cccc(F)c2c(=O)n1Cc1ccc(-c2ccccc2-c2nn[nH]n2)cc1"
  tested-system: "Type-1 angiotensin II receptor (Oryctolagus cuniculus)"
  prefix-operator: "="
  IC50, nM: 10
- input-smiles: "CCCCc1nc2ccc(Cl)cc2c(=O)n1Cc1ccc(-c2ccccc2-c2nn[nH]n2)cc1"
  tested-system: "Type-1 angiotensin II receptor (Oryctolagus cuniculus)"
  prefix-operator: "="
  IC50, nM: 29
